All figures here come from patent US20190338002A1.

Overview of reported kon across a group of binders:
# tested-on: T1, rat alpha CGRP (SEQ ID NO: 82) (rat)
# T1 construct: also called rat αCGRP; rat α-CGRP
# T1 peptide: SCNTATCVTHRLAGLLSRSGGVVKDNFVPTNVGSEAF
# measurement-notes: SPR, 37 C, mutein captured, CGRP analyte
Expressed in M⁻¹ s⁻¹, but write only the number.

Solved cases (5 shown):
{"binder": "lipocalin mutein SEQ ID NO: 17 (designed binder, biotinylated by NHS chemistry for capture in SPR) QDSTSDLIPAPPLSKVPLQQNFQDNQFHGKWYVVGRAGNDVLREDKDPEKMEATIYELKEDKSYNVTDVGFVQKRCMYVTHTFVPGSQPGEFTLGNIESYPGVTSALVRVVSTDYNQHAMVFVKLVKQNRELFEITLYGRTKELTSELKENFIRFSKSLGLPENHIVFPVPIDQCIDGSAWSHPQFEK", "assay-endpoint": "kon", "assay-result": "2.75e+06"}
{"binder": "lipocalin mutein SEQ ID NO: 8 (designed binder, biotinylated by NHS chemistry for capture in SPR) QDSTSDLIPAPPLSKVPLQQNFQDNQFHGKWYVVGWAGNTLRREDKNPTKMQATIYELKEDKSYNVTWVYFSEKKCNYHIETSVPGSQPGEFTLGTIKSYPGETSILVRVVSTNYNQHAMVFFKGVSQNREIFEITLYGRTKELTSELKENFIRFSKSLGLPENHIVFPVPIDQCIDGSAWSHPQFEK", "assay-endpoint": "kon", "assay-result": 734000}
{"binder": "lipocalin mutein SEQ ID NO: 15 (designed binder, biotinylated by NHS chemistry for capture in SPR) QDSTSDLIPAPPLSKVPLQQNFQDNQFHGKWYVVGRAANDRLREDKDPEKMEATIYELKEDKSYNVTDVGFSRKKCIYVIHTFVPGSQPGEFTLGNIKSYPGTTSGLVRVVSTNYNQHAMVFFKVVGQNRESFEITLYGRTKELTSELKENFIRFSKSLGLPENHIVFPVPIDQCIDGSAWSHPQFEK", "assay-endpoint": "kon", "assay-result": "1.59e+06"}
{"binder": "lipocalin mutein SEQ ID NO: 28 (designed binder, biotinylated by NHS chemistry for capture in SPR) QDSTSDLIPAPPLSKVPLQQNFQDNQFHGKWYVVGWAGNTLLREDKDPIKMQAIIYELKEDRSYNVTWVYFSEKKCNYHIETFVPGSQPGEFTLGTIKSYPGETPILVRVMSTNYNQHAMVFFKGVNQNREIFEIILYGRTKELTNELKENFIRFSKSLGLPENHIVFPVPIDQCIDGSAWSHPQFEK", "assay-endpoint": "kon", "assay-result": "1.41e+06"}
{"binder": "lipocalin mutein SEQ ID NO: 24 (designed binder, biotinylated by NHS chemistry for capture in SPR) QDSTSDLIPAPPLSKVPLQQNFQDNQFHGKWYVVGWAGNTLLREDKDPIKMQAKIYELKEDRSYNVTWVYFAEKKCNYHIETFVPGSQPGEFTLGTIKSYPGETPILVRVVSTNYNQHAMVFFKGVNQNREIFEIILYGRTKELTNELKENFIRFSKSLGLPENHIVFPVPIDQCIDGSAWSHPQFEK", "assay-endpoint": "kon", "assay-result": "1.43e+06"}

Below: the item to evaluate.
May I ask what kon has been recorded for lipocalin mutein SEQ ID NO: 12 (designed binder, biotinylated by NHS chemistry for capture in SPR) QDSTSDLIPAPPLSKVPLQQNFQDNQFHGKWYVVGWAGNTLLREDKDPPKMQATIYELKEDRSYNVTWVYFSEKKCNYHIETSVPGSQPGEFTLGTIQSHPGETPILVRVVSTNYNQHAMVFFKGMGQNREIFEITLYGRTKELTSELKENFIRFSKSLGLPENHIVFPVPIDQCIDGSAWSHPQFEK ?
661000
